// data source = paper PMC8019567

Test: in vivo
Details: topical or ocular, 10 mg/kg
Recorded endpoint: half-life (h)
Your answer should be a plain number; it is taken to be in h.

-- ask # half-life lookup, item O=C(C1CCCCC1)N1CC(=O)N2CCc3ccccc3C2C1 (stereo not shown)
-- reply 103

====

Test: Study #2: dose proportionality/linearity after a single topical dose of NexGard Combo at 0.5x, 1x, 2x
Format: in vivo, cats
Details: in vivo, topical or ocular, 10 mg/kg
Description: Blood samples were collected prior to treatment and over a period of 91 days after the treatment, as detailed in Table 1. […] Dose proportionality for the three active ingredients was assessed by calculating the linear relationship between AUC or Cmax and the dose using the simple linear regression model.
Recorded endpoint: Cmax (ng/mL)
Your answer should be a plain number; it is taken to be in ng/mL.

-- ask # Cmax lookup, item O=C(C1CCCCC1)N1CC(=O)N2CCc3ccccc3C2C1 (stereo not shown)
-- reply 126
